So I've got a bunch of compounds here, and I need their pIC50 values.
The meaning of pIC50 here: minus log10 of the concentration in molar units.

Jot down pIC50 (Somatostatin receptor type 3 (Homo sapiens, UniProt P32745)) of CC(C)[C@@H]1NC(=O)[C@H](CCCCN)N(C)C(=O)[C@@H](Cc2c[nH]c3ccccc23)N(C)C(=O)[C@H](Cc2ccc(O)cc2)NC(=O)[C@H](C)N(C)C(=O)[C@H](Cc2ccccc2)N(C)C1=O .
6.70

Write down the reported pIC50 (system: Somatostatin receptor type 3 (Homo sapiens, UniProt P32745)) of CC(C)[C@@H]1NC(=O)[C@H](CCCCN)NC(=O)[C@@H](Cc2c[nH]c3ccccc23)NC(=O)[C@H](Cc2ccc(O)cc2)NC(=O)[C@H](C)N(C)C(=O)[C@H](Cc2ccccc2)N(C)C1=O
Sequence (P32745 whole entry): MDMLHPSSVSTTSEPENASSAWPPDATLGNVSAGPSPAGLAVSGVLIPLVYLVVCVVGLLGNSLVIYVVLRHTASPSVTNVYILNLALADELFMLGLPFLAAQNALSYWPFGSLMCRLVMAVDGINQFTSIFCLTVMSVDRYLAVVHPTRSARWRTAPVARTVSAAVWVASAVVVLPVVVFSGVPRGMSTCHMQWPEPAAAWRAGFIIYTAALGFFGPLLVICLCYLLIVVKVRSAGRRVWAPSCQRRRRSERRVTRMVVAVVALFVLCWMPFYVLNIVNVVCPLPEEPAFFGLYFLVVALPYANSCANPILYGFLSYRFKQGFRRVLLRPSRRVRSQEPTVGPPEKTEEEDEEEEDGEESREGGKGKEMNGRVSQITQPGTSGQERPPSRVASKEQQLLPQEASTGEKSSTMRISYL
7.01

Using Somatostatin receptor type 3 (Homo sapiens, UniProt P32745) as the test system, report measured pIC50 of CC(C)[C@@H]1NC(=O)[C@H](CCCCN)N(C)C(=O)[C@@H](Cc2c[nH]c3ccccc23)NC(=O)[C@H](Cc2ccc(O)cc2)NC(=O)[C@H](C)N(C)C(=O)[C@H](Cc2ccccc2)NC1=O .
6.51

Output reported pIC50 of the compound CC(C)[C@@H]1NC(=O)[C@H](CCCCN)N(C)C(=O)[C@@H](Cc2c[nH]c3ccccc23)NC(=O)[C@H](Cc2ccc(O)cc2)NC(=O)[C@H](C)N(C)C(=O)[C@H](Cc2ccccc2)N(C)C1=O on Somatostatin receptor type 3 (Homo sapiens, UniProt P32745).
6.76

Report value only: pIC50, Somatostatin receptor type 3 (Homo sapiens, UniProt P32745), CC(C)[C@@H]1NC(=O)[C@H](CCCCN)NC(=O)[C@@H](Cc2c[nH]c3ccccc23)NC(=O)[C@H](Cc2ccc(O)cc2)NC(=O)[C@H](C)N(C)C(=O)[C@H](Cc2ccccc2)NC1=O [SEGLITIDE]
6.98

Provide Somatostatin receptor type 3 (Homo sapiens, UniProt P32745) pIC50 reading for CC(C)[C@@H]1NC(=O)[C@H](CCCCN)N(C)C(=O)[C@@H](Cc2c[nH]c3ccccc23)N(C)C(=O)[C@H](Cc2ccc(O)cc2)NC(=O)[C@H](C)N(C)C(=O)[C@H](Cc2ccccc2)NC1=O .
6.76
